Source listed as patent US20260242478A1.

Biological target: Anti-CD28 Fab (SEQ ID NOs: 696, 697)
Sequence (VH, as listed by the source, chain 1 of 2): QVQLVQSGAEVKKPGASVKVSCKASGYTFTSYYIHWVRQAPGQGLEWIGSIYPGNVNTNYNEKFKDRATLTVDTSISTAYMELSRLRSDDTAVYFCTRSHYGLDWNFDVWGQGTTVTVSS
Sequence (VL, as listed by the source, chain 2 of 2): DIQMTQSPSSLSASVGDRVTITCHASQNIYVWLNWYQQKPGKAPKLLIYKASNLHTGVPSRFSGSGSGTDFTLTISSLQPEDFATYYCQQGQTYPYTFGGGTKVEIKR
Test: phage binding ELISA; biotinylated anti-CD28 Fab on neutravidin plate, clonal phage detected with anti-M13 HRP
measuredEndpoint: Anti-CD28 Fab (SEQ ID NOs: 696, 697) signal
Output: the number by itself.

- binder: "GCAAGAHYPWPFCL [Phage-1472 peptide (Peptide-92 library, SEQ ID NO: 1768)]"
  endpointValue: 1.76
- binder: "MCTAGALYNWPTCL [Phage-1466 peptide (Peptide-92 library, SEQ ID NO: 1762)]"
  endpointValue: 1.78
- binder: "WCAEFFNYHWPLCF [Phage-1468 peptide (Peptide-92 library, SEQ ID NO: 1764)]"
  endpointValue: 1.77
- binder: "SCAAGASYSWPACF [Phage-1463 peptide (Peptide-92 library, SEQ ID NO: 1759)]"
  endpointValue: 1.79
- binder: "TCAAGAVWEWPMCF [Phage-1473 peptide (Peptide-92 library, SEQ ID NO: 1769)]"
  endpointValue: 1.76

**Query** So what does the record say about Anti-CD28 Fab (SEQ ID NOs: 696, 697) signal for SCSAGFHYPWPICL [Phage-1464 peptide (Peptide-92 library, SEQ ID NO: 1760)] ?
**Result** 1.79

**Query** So what does the record say about Anti-CD28 Fab (SEQ ID NOs: 696, 697) signal for TCAAGANYPWPLCL [Phage-1474 peptide (Peptide-92 library, SEQ ID NO: 1770)] ?
**Result** 1.75

**Query** So what does the record say about Anti-CD28 Fab (SEQ ID NOs: 696, 697) signal for YCSAGAQWPWPICL [Phage-1461 peptide (Peptide-92 library, SEQ ID NO: 1757)] ?
**Result** 1.79
